The origin of these recorded values is ChEMBL document CHEMBL3739316.

Here the recorded Activity is given for each entry.
# Test system: Candida albicans
# assay-protocol: Antifungal activity against Candida albicans MY1055 in DBA/2 mouse candidiasis model assessed as change in CFU per gram of kidney at 12.5 mg/kg, ip bid after 7 days by Target Organ Kidney Assay relative to sham treated control
# Assay type: functional
value-type: Activity (deltalog10CFU)

* CC(C)[C@@H](C)[C@@]1(C)CC[C@]2(C)[C@H]3CC[C@H]4C5(C)COC[C@@]4(C[C@@H](n4nnc(N)n4)[C@@H]5OC[C@@](C)(C(C)C)N(C)C)C3=CC[C@@]2(C)[C@@H]1C(=O)O | -3.36
* CCN[C@@](C)(CO[C@H]1[C@H](n2nnc(N)n2)C[C@@]23COCC1(C)[C@@H]2CC[C@H]1C3=CC[C@@]2(C)[C@H](C(=O)O)[C@@](C)([C@H](C)C(C)C)CC[C@]12C)C(C)C | -3.26
* CN[C@@](C)(CO[C@H]1[C@H](n2nnc(N)n2)C[C@@]23COCC1(C)[C@@H]2CC[C@H]1C3=CC[C@@]2(C)[C@H](C(=O)O)[C@@](C)([C@H](C)C(C)C)CC[C@]12C)C(C)C | -3.89
* CCCN[C@@](C)(CO[C@H]1[C@H](n2nnc(N)n2)C[C@@]23COCC1(C)[C@@H]2CC[C@H]1C3=CC[C@@]2(C)[C@H](C(=O)O)[C@@](C)([C@H](C)C(C)C)CC[C@]12C)C(C)C | -2.98

---

# assay-protocol: Oral bioavailability in mouse
# Format: ADME, organism-based
# experimental-conditions: in vivo
So basically: bioavailability at 20% or higher? That is 1 (yes). Lower than 20%? That is 0 (no).

• CCCN[C@@](C)(CO[C@H]1[C@H](n2nnc(N)n2)C[C@@]23COCC1(C)[C@@H]2CC[C@H]1C3=CC[C@@]2(C)[C@H](C(=O)O)[C@@](C)([C@H](C)C(C)C)CC[C@]12C)C(C)C = 1 (yes)
• CC(C)[C@@H](C)[C@@]1(C)CC[C@]2(C)[C@H]3CC[C@H]4C5(C)COC[C@@]4(C[C@@H](n4nnc(N)n4)[C@@H]5OC[C@@](C)(C(C)C)N(C)C)C3=CC[C@@]2(C)[C@@H]1C(=O)O = 0 (no)
• CC(=O)O[C@@H]1C[C@@]23COCC(C)([C@H]1OCC(C)(C)N)[C@@H]2CC[C@H]1C3=CC[C@@]2(C)[C@H](C(=O)O)[C@@](C)([C@H](C)C(C)C)CC[C@]12C = 1 (yes)
• CCCCN[C@@](C)(CO[C@H]1[C@H](n2nnc(N)n2)C[C@@]23COCC1(C)[C@@H]2CC[C@H]1C3=CC[C@@]2(C)[C@H](C(=O)O)[C@@](C)([C@H](C)C(C)C)CC[C@]12C)C(C)C = 1 (yes)
• CN[C@@](C)(CO[C@H]1[C@H](n2nnc(N)n2)C[C@@]23COCC1(C)[C@@H]2CC[C@H]1C3=CC[C@@]2(C)[C@H](C(=O)O)[C@@](C)([C@H](C)C(C)C)CC[C@]12C)C(C)C = 0 (no)
• CCN[C@@](C)(CO[C@H]1[C@H](n2nnc(N)n2)C[C@@]23COCC1(C)[C@@H]2CC[C@H]1C3=CC[C@@]2(C)[C@H](C(=O)O)[C@@](C)([C@H](C)C(C)C)CC[C@]12C)C(C)C = 0 (no)
• CC(=O)O[C@@H]1C[C@@]23COCC(C)([C@H]1OCCN)[C@@H]2CC[C@H]1C3=CC[C@@]2(C)[C@H](C(=O)O)[C@@](C)([C@H](C)C(C)C)CC[C@]12C = 1 (yes)

---

# assay-protocol: AUC (0 to 24 hrs) in DBA/2J mouse at 10 mg/kg, po
# Assay type: ADME, organism-based
# Parameters: dose 10 mg/kg, time < 24 hr, route oral
# experimental-conditions: in vivo
Here the recorded AUC(0-t) at 24 h is given for each entry.
value-type: AUC(0-t) at 24 h (µM·h)

* CC(C)[C@@H](C)[C@@]1(C)CC[C@]2(C)[C@H]3CC[C@H]4C5(C)COC[C@@]4(C[C@@H](n4nnc(N)n4)[C@@H]5OC[C@@](C)(C(C)C)N(C)C)C3=CC[C@@]2(C)[C@@H]1C(=O)O | 1.27
* CN[C@@](C)(CO[C@H]1[C@H](n2nnc(N)n2)C[C@@]23COCC1(C)[C@@H]2CC[C@H]1C3=CC[C@@]2(C)[C@H](C(=O)O)[C@@](C)([C@H](C)C(C)C)CC[C@]12C)C(C)C | 1.06
* CCCN[C@@](C)(CO[C@H]1[C@H](n2nnc(N)n2)C[C@@]23COCC1(C)[C@@H]2CC[C@H]1C3=CC[C@@]2(C)[C@H](C(=O)O)[C@@](C)([C@H](C)C(C)C)CC[C@]12C)C(C)C | 3.13
* CCN[C@@](C)(CO[C@H]1[C@H](n2nnc(N)n2)C[C@@]23COCC1(C)[C@@H]2CC[C@H]1C3=CC[C@@]2(C)[C@H](C(=O)O)[C@@](C)([C@H](C)C(C)C)CC[C@]12C)C(C)C | 4.22

---

Here the recorded pIC50 is given for each entry.
Sequence of the target: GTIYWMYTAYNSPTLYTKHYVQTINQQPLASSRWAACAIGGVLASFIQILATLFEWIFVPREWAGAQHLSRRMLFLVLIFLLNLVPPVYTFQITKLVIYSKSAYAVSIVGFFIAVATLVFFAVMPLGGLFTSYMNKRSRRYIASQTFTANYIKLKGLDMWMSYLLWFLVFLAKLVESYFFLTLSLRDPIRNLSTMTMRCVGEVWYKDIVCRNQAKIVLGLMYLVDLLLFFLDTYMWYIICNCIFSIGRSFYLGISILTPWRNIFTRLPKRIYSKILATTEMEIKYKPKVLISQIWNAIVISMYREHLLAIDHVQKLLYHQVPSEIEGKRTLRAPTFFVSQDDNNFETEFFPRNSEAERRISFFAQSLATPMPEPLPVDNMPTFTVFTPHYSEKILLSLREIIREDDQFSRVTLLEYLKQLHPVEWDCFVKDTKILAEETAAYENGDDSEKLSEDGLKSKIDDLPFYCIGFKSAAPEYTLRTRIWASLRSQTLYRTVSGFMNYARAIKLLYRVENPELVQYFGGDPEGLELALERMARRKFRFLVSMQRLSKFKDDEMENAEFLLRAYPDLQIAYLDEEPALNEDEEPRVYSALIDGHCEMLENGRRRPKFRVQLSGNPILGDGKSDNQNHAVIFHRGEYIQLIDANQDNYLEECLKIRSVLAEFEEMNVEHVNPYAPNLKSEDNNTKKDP
pIC50: −log10 of the molar value.
value-type: pIC50

• COc1ccc([C@@H]2C[C@@]34COCC(C)([C@H]2O[C@@H]2O[C@H](CO)[C@@H](O)[C@H](O)[C@H]2O)[C@@H]3CC[C@H]2C4=CC[C@@]3(C)[C@H](C(=O)O)[C@@](C)([C@H](C)C(C)C)CC[C@]23C)cc1 = 6.20
• CCCCN[C@@](C)(CO[C@H]1[C@H](n2nnc(N)n2)C[C@@]23COCC1(C)[C@@H]2CC[C@H]1C3=CC[C@@]2(C)[C@H](C(=O)O)[C@@](C)([C@H](C)C(C)C)CC[C@]12C)C(C)C = 7.85
• CC(C)[C@@H](C)[C@@]1(C)CC[C@]2(C)[C@H]3CC[C@H]4C5(C)COC[C@@]4(C[C@@H](n4cncn4)[C@@H]5O[C@@H]4O[C@H](CO)[C@@H](O)[C@H](O)[C@H]4O)C3=CC[C@@]2(C)[C@@H]1C(=O)O = 6.47
• CC(C)[C@@H](C)[C@@]1(C)CC[C@]2(C)[C@H]3CC[C@H]4C5(C)COC[C@@]4(C[C@@H](n4nnc(N)n4)[C@@H]5OC[C@](C)(N)C(C)C)C3=CC[C@@]2(C)[C@@H]1C(=O)O = 8.52

---

Here the recorded Activity is given for each entry.
# Test system: Candida albicans
# assay-protocol: Antifungal activity against Candida albicans MY1055 in DBA/2 mouse candidiasis model assessed as change in CFU per gram of kidney at 12.5 mg/kg, po bid after 7 days by Target Organ Kidney Assay relative to sham treated control
# Assay type: functional
value-type: Activity (deltalog10CFU)

- CCN[C@@](C)(CO[C@H]1[C@H](n2nnc(N)n2)C[C@@]23COCC1(C)[C@@H]2CC[C@H]1C3=CC[C@@]2(C)[C@H](C(=O)O)[C@@](C)([C@H](C)C(C)C)CC[C@]12C)C(C)C: -2.54
- CN[C@@](C)(CO[C@H]1[C@H](n2nnc(N)n2)C[C@@]23COCC1(C)[C@@H]2CC[C@H]1C3=CC[C@@]2(C)[C@H](C(=O)O)[C@@](C)([C@H](C)C(C)C)CC[C@]12C)C(C)C: 0.89
- CCCN[C@@](C)(CO[C@H]1[C@H](n2nnc(N)n2)C[C@@]23COCC1(C)[C@@H]2CC[C@H]1C3=CC[C@@]2(C)[C@H](C(=O)O)[C@@](C)([C@H](C)C(C)C)CC[C@]12C)C(C)C: -1.53
- CC(C)[C@@H](C)[C@@]1(C)CC[C@]2(C)[C@H]3CC[C@H]4C5(C)COC[C@@]4(C[C@@H](n4nnc(N)n4)[C@@H]5OC[C@@](C)(C(C)C)N(C)C)C3=CC[C@@]2(C)[C@@H]1C(=O)O: -2.38
